- Tested on: HCC-366
- measurement description: relative viability (nuclei count vs DMSO), 5 days (fraction); higher = more cells survive
- study conditions: first compound 2.53 µM
Attribute: relative viability

Record excerpt, results attached:
compound="Nc1cccc2c1CN(C1CCC(=O)NC1=O)C2=O (stereo not given) [Lenalidomide] + Cc1cc(Nc2cc(N3CCN(C)CC3)nc(Sc3ccc(NC(=O)C4CC4)cc3)n2)n[nH]1 [Tozasertib] (partner 0.1 µM)" target_under_test=HCC-366 experimental_value=0.154
compound="Nc1cccc2c1CN(C1CCC(=O)NC1=O)C2=O (stereo not given) [Lenalidomide] + NC(=O)Nc1cc(-c2cccc(F)c2)sc1C(=O)N[C@H]1CCCNC1 [AZD7762] (partner 0.2 µM)" target_under_test=HCC-366 experimental_value=0.371
compound="Nc1cccc2c1CN(C1CCC(=O)NC1=O)C2=O (stereo not given) [Lenalidomide] + Cc1nc(Nc2ncc(C(=O)Nc3c(C)cccc3Cl)s2)cc(N2CCN(CCO)CC2)n1 [Dasatinib] (partner 0.075 µM)" target_under_test=HCC-366 experimental_value=0.752

Recorded relative viability (compound Nc1cccc2c1CN(C1CCC(=O)NC1=O)C2=O (stereo not given) [Lenalidomide] + COc1cccc2cc(-c3nc([C@H]4CC[C@H](C(=O)O)CC4)n4ncnc(N)c34)[nH]c12 [OSI-027] (partner 0.5 µM) ): 1.01

Recorded relative viability (compound Nc1cccc2c1CN(C1CCC(=O)NC1=O)C2=O (stereo not given) [Lenalidomide] + CC(=O)Nc1cccc(-n2c(=O)n(C3CC3)c(=O)c3c(Nc4ccc(I)cc4F)n(C)c(=O)c(C)c32)c1 [Trametinib] (partner 0.02 µM) ): 0.386

---

- System: NCI-H1650
- measurement description: relative viability (nuclei count vs DMSO), 5 days (fraction); higher = more cells survive
- study conditions: first compound 6.325 µM
I'd appreciate it if you marked entries satisfied when relative viability is lower than 0.2 and not satisfied when it is not.

See these solved cases before continuing.
compound="Cc1csc(=NC2CCCCC2)n1/N=C/c1ccc(O)c(O)c1O [MIM1] + COc1cc2c(Oc3ccc(NC(=O)C4(C(=O)Nc5ccc(F)cc5)CC4)cc3F)ccnc2cc1OCCCN1CCOCC1 [Foretinib] (partner 0.25 µM)" classification="not satisfied"
compound="Cc1csc(=NC2CCCCC2)n1/N=C/c1ccc(O)c(O)c1O [MIM1] + CC1(C)CCC(c2ccc(Cl)cc2)=C(CN2CCN(c3ccc(C(=O)NS(=O)(=O)c4ccc(N[C@H](CCN5CCOCC5)CSc5ccccc5)c(S(=O)(=O)C(F)(F)F)c4)cc3)CC2)C1 [Navitoclax] (partner 0.5 µM)" classification="not satisfied"
compound="Cc1csc(=NC2CCCCC2)n1/N=C/c1ccc(O)c(O)c1O [MIM1] + Nc1nc2[nH]cc(CCc3ccc(C(=O)N[C@@H](CCC(=O)O)C(=O)O)cc3)c2c(=O)[nH]1 [Pemetrexed] (partner 0.2 µM)" classification=satisfied

Please look at the following compound next.
# strict comparison: is reported relative viability < 0.2? input = Cc1csc(=NC2CCCCC2)n1/N=C/c1ccc(O)c(O)c1O [MIM1] + CC(=O)c1c(C)c2cnc(Nc3ccc(N4CCNCC4)cn3)nc2n(C2CCCC2)c1=O [Palbociclib] (partner 0.5 µM) satisfied

---

- Test system: NCI-H2009
- measurement description: relative viability (nuclei count vs DMSO), 5 days (fraction); higher = more cells survive
- study conditions: first compound 0.001 µM
assay metric: relative viability
// return just the number, without any unit appended

compound="Cc1cn(-c2cc(NC(=O)c3ccc(C)c(Nc4nccc(-c5cccnc5)n4)c3)cc(C(F)(F)F)c2)cn1 [Nilotinib] + CC(=O)c1c(C)c2cnc(Nc3ccc(N4CCNCC4)cn3)nc2n(C2CCCC2)c1=O [Palbociclib] (partner 0.5 µM)" target_under_test=NCI-H2009 experimental_value=0.21

Recorded relative viability (compound Cc1cn(-c2cc(NC(=O)c3ccc(C)c(Nc4nccc(-c5cccnc5)n4)c3)cc(C(F)(F)F)c2)cn1 [Nilotinib] + CS(=O)(=O)CCNCc1ccc(-c2ccc3ncnc(Nc4ccc(OCc5cccc(F)c5)c(Cl)c4)c3c2)o1 [Lapatinib] (partner 2 µM) ): 0.788
